B1: ZNF449 (parent)
chain: QLTGHQRIHSGEEPHKCPECGKRF

Variants of: B1
Assay: protein stability index of a GFP-peptide fusion (GPS, HEK-293T) (PSI 1-6); higher = more stable;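 note: lentivirally expressed fusions sorted by FACS into six bins by GFP to DsRed ratio, PSI derived from sequencing read proportions per bin multiplied by bin number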
Conditions: c terminus: a fixed tail appended
observed.property: protein stability index
Answer with a bare number; do not write a unit.

QLTGHQRIHSGEEPHKCWECGKRF	3.4
QLRGHQRIHSGEEPHKCPECGKRF	3.48
VLTGHQRIHSGEEPHKCPECGKRF	3.76

[ask] # return recorded protein stability index for entry QLTGHQRIHSGEEPHKCPGCGKRF
[reply] 3.09

[ask] # return recorded protein stability index for entry QDTGHQRIHSGEEPHKCPECGKRF
[reply] 5.01

[ask] # return recorded protein stability index for entry QLTGHQRIHEGEEPHKCPECGKRF
[reply] 4.48

[ask] # return recorded protein stability index for entry QLTGHQQIHSGEEPHKCPECGKRF
[reply] 4.22

[ask] # return recorded protein stability index for entry QLTGHQAIHSGEEPHKCPECGKRF
[reply] 4.69

[ask] # return recorded protein stability index for entry QLTGHQRIHSGEEPHKCPSCGKRF
[reply] 3.62
